// reported Selectivity index (IC50 hAChE/IC50 hBChE) per item
tgt: hBChE (Homo sapiens, UniProt P06276)
Sequence (P06276 29-602): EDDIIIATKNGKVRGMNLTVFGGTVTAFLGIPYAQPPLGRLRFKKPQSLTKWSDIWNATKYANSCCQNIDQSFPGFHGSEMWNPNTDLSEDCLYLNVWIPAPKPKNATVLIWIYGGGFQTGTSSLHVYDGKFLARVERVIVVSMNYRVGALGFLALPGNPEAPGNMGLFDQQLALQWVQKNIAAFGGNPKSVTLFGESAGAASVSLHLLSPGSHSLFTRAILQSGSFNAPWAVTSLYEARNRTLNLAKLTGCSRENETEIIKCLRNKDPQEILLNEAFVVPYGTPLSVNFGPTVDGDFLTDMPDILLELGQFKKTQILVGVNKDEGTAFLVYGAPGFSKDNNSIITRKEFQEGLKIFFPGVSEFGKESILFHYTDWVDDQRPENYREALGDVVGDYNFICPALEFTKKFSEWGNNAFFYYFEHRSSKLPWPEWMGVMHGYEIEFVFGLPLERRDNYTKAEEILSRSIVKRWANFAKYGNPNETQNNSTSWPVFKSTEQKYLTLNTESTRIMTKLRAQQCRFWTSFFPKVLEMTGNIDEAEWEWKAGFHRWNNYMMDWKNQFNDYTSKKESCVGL
assay name: biochemical
Format: biochemical
cond: hAChE over hBChE
Procedure: For evaluation of enzyme inhibition, Ellman's colorimetric assay was conducted as described in Ellman, G. L., Arch. Biochem. Biophys 1958, 74, 443-450 and Ellman, G. L. et al., Biochem. Pharmacol. 1961, 7, 88-95. Therefor, 5,5'-dithiobis-(2-nitrobenzoic acid) (DTNB) solution, respective Cholinesterase (ChE) and inhibitor were incubated together and enzyme activity was measured after 20 min. The long incubation time was needed to allow the carbamate transfer between ChE and inhibitor. […]

Solved entries:
- compound: "CN1c2ccc(OC(=O)NCCCCN3CCOCC3)cc2CN2CCc3ccccc3C21 (centres unmarked) [Compound 19c]"
  result: ">1000"
- compound: "CN1c2ccc(OC(=O)NCCCCCCN3CCOCC3)cc2CN2CCc3ccccc3C21 (centres unmarked) [Compound 19d]"
  result: ">1000"
- compound: "CN1c2ccc(OC(=O)NCCCCCCN3CCc4ccccc4C3)cc2CN2CCc3ccccc3C21 (centres unmarked) [Compound 19j]"
  result: ">1000"
- compound: "CN1c2ccc(OC(=O)NCCN3CCc4ccccc4C3)cc2CN2CCc3ccccc3C21 (centres unmarked) [Compound 19g]"
  result: ">10"
- compound: "CN1c2ccc(OC(=O)NCCCN3CCc4ccccc4C3)cc2CN2CCc3ccccc3C21 (centres unmarked) [Compound 19h]"
  result: ">10"
- compound: "CN1c2ccc(OC(=O)NCCCCCCCCN3CCc4ccccc4C3)cc2CN2CCc3ccccc3C21 (centres unmarked) [Compound 19k]"
  result: ">1000"

// query Tell me measured Selectivity index (IC50 hAChE/IC50 hBChE) for CN1c2ccc(OC(=O)NCCCCCCCCCCN3CCc4ccccc4C3)cc2CN2CCc3ccccc3C21 (centres unmarked) [Compound 19l] please.
// result >1000

// query Tell me measured Selectivity index (IC50 hAChE/IC50 hBChE) for CN1c2ccc(OC(=O)NCCCCN3CCc4ccccc4C3)cc2CN2CCc3ccccc3C21 (centres unmarked) [Compound 19i] please.
// result >100

* * *

For hAChE (Homo sapiens, UniProt P22303), measured pIC50 is reported for the entries below.
Scale: negative log10 of molar concentration, which is what pIC50 denotes.

- molecule: "CN1c2ccc(OC(=O)NCCCCCCN3CCCCC3)cc2CN2CCc3ccccc3C21 (centres unmarked) [Compound 19p]"
  tgt: "hAChE (Homo sapiens, UniProt P22303)"
  pIC50: 5.92

Let's switch to this molecule now.
// query Tell me measured pIC50 for CN1c2ccc(OC(=O)NCCCCCCN3CCCC3)cc2CN2CCc3ccccc3C21 (centres unmarked) [Compound 19o] please.
// result 6.06

* * *

tgt: hBChE (Homo sapiens, UniProt P06276)
assay name: Carbamoylation kinetics on hBChE (time-dependent inhibition, Kc and k3)
Format: biochemical
cond: carbamoylation rate constant
Protocol: As carbamate based inhibitors (C-X) show a pseudo irreversible manner of binding, the IC50 values must be seen critically because two chemical reactions determine them: Carbamate (C) transfer onto the enzyme (E) and carbamate hydrolysis. […] For the determination of Kc and k3 a similar experimental setup was used compared to the evaluation of IC50 values, whereas enzyme activity was measured at various time points after addition of inhibitor. […]
Mark class 0 for k3 [min^-1] hBChE values under 0.3 min⁻¹, and class 1 for everything at or above.

Worked examples follow.
- compound: "CN1c2ccc(OC(=O)NCCCCCCn3cnc4ccccc43)cc2CN2CCc3ccccc3C21 (centres unmarked) [Compound 19m]"
  tgt: "hBChE (Homo sapiens, UniProt P06276)"
  class: "class 0"
- compound: "CN1c2ccc(OC(=O)NCCCCCCCCCCN3CCc4ccccc4C3)cc2CN2CCc3ccccc3C21 (centres unmarked) [Compound 19l]"
  tgt: "hBChE (Homo sapiens, UniProt P06276)"
  class: "class 0"
- compound: "CN1c2ccc(OC(=O)NCCN3CCc4ccccc4C3)cc2CN2CCc3ccccc3C21 (centres unmarked) [Compound 19g]"
  tgt: "hBChE (Homo sapiens, UniProt P06276)"
  class: "class 1"
- compound: "CN1c2ccc(OC(=O)NCCCCCCN3CCN(C(=O)OC(C)(C)C)CC3)cc2CN2CCc3ccccc3C21 (centres unmarked) [Compound 19q]"
  tgt: "hBChE (Homo sapiens, UniProt P06276)"
  class: "class 1"

// query Identify whether the reported k3 [min^-1] hBChE of the following compound is 0.3 min⁻¹ or greater: CN1c2ccc(OC(=O)NCCCCCCN3CCNCC3)cc2CN2CCc3ccccc3C21 (centres unmarked) [Compound 19r]
// result class 1

// query Identify whether the reported k3 [min^-1] hBChE of the following compound is 0.3 min⁻¹ or greater: CN1c2ccc(OC(=O)NCCCCCCN3CCc4ccccc4C3)cc2CN2CCc3ccccc3C21 (centres unmarked) [Compound 19j]
// result class 0

// query Identify whether the reported k3 [min^-1] hBChE of the following compound is 0.3 min⁻¹ or greater: CN1c2ccc(OC(=O)NCCCCCCn3ccnc3)cc2CN2CCc3ccccc3C21 (centres unmarked) [Compound 19n]
// result class 1

// query Identify whether the reported k3 [min^-1] hBChE of the following compound is 0.3 min⁻¹ or greater: CN1c2ccc(OC(=O)NCCCCCCN3CCOCC3)cc2CN2CCc3ccccc3C21 (centres unmarked) [Compound 19d]
// result class 0

// provenance: patent EP3683219A1
